B1: glmS ribozyme (parent)
chain: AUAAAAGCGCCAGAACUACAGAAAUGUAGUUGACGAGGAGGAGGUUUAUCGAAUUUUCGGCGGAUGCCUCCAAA

variants of: B1; experiment: self-cleavage kobs at 10000 uM GlcN6P; higher = faster cleavage; RNA array; settings: with glucosamine-6-phosphate
Variants at the floor of the assay were thinned out.
METRIC: self-cleavage kobs at 10000 uM GlcN6P (s⁻¹)
Number in s⁻¹, nothing else.

Please review the entries below; each comes with its answer.
1) C50G U57C C71G : 9.26e-05
2) A12U U31G : 0.0262
3) A39G U45G C70A : 0.000127
4) G13A C50G G66U U69A : 0.000117

For the variant G32A C67A , give its reported self-cleavage kobs at 10000 uM GlcN6P.
0.000728

For the variant U46C C68A , give its reported self-cleavage kobs at 10000 uM GlcN6P.
3.47e-05

For the variant U45G C68U , give its reported self-cleavage kobs at 10000 uM GlcN6P.
0.000826

For the variant U46C A64G , give its reported self-cleavage kobs at 10000 uM GlcN6P.
0.00537

For the variant A14U A48U , give its reported self-cleavage kobs at 10000 uM GlcN6P.
5.37e-05

Recorded values, source the supplement of paper PMC7125110.
